- protocol summary: HepG2 cell cytotoxicity, dose response, cytotoxicity control, plate reader, cherry-pick, antagonist series (AID 743416)
- Type: functional, cell-based
Activity calls are given as the source filed them.
Entry note: the call must match one of Yes for active, No for inactive

Worked examples, 3 compounds total:
{"compound": "Cc1ccccc1CN1Cc2cnnn2-c2ccccc2C1C#N (centres undefined)", "assigned category": "Yes"}
{"compound": "COc1ccccc1N1CCN(C(=O)c2sc3nc(-c4ccc(F)cc4)cn3c2C)CC1", "assigned category": "Yes"}
{"compound": "Cc1ccnc(NC(=O)c2cc3ccccc3o2)c1", "assigned category": "No"}

Could you now consider this next compound?
Task: State the result this test recorded for O=C(O)c1cccc(COc2ccccc2Cl)c1 .
Output: No

###

Exercise: for every item that follows, state its recorded EC50.
- system: Protein RecA (Mycobacterium tuberculosis, UniProt P9WHJ3)
- protocol summary: Fluorescence Cell-Free Homogeneous Dose Retest to Identify Inhibitors of RecA-Intein Splicing Activity. [Related pubchem assays (depositor defined):AID2097, AID2223, AID489010, AID492950]
- Type: functional
Active and inactive are the calls of the source.

{"compound": "CC1=C(C)/C(=N\\OC(=O)/C=C/c2ccccc2)C=CC1=O", "EC50": "0.532 µM (active)"}
{"compound": "CC(C)Cn1c(C(C)C)nc([N+](=O)[O-])c1S(=O)(=O)c1ccc(F)cc1", "EC50": "9.69 µM (active)"}
{"compound": "Cc1ccc(-c2ccc(C3C(C#N)=C(N)Oc4[nH]nc(C)c43)o2)cc1 (stereo unspecified)", "EC50": "4.25 µM (active)"}
{"compound": "CCCCNC1=CC(=O)C(=O)c2ccccc21", "EC50": "0.669 µM (active)"}
{"compound": "CCOC(=O)c1c(NC(=O)CCl)sc(CN(C)C)c1-c1ccccc1", "EC50": "7.5 µM (active)"}

Kindly consider the entry below.
Task: Form field - read-out: EC50; system: Protein RecA (Mycobacterium tuberculosis, UniProt P9WHJ3); submitted item: O=C(/C=C/c1ccccc1)c1ccc2c3c(cccc13)CC2
Output: 11.4 µM (active)

###

- protocol summary: cells
- Format: functional, cell-based
Activity calls are given as the source filed them.
Exercise: for every item that follows, state its recorded EC50.

I would be grateful if you could provide EC50 for each of the following entries.
1. O=C(c1cccc(C(F)(F)F)c1)C1CCCN(C(=O)Cn2cncn2)C1 (stereo not given)
2. N#C/C(=C(/O)c1ccc(F)cc1)c1nc2ccccc2s1
3. O=C(Nc1nc(-c2ccccn2)cs1)c1ccc(S(=O)(=O)N2CCCCC2)cc1
4. Cc1ccc(S(=O)(=O)N(C)CC(=O)NCCCn2ccnc2)cc1

Output:
1. > 350 µM (not active)
2. > 350 µM (not active)
3. 13.4 µM (active)
4. > 350 µM (not active)

Task: Need EC50, item O=C(c1ccc(OC2CCN(CCc3ccccc3)CC2)cc1)N1CCCC(CCCO)C1 (stereo not given)
Output: > 350 µM (not active)

###

- system: Replicative DNA helicase DnaB (Mycobacterium tuberculosis, UniProt P9WMR3)
- Sequence (P9WMR3 whole entry): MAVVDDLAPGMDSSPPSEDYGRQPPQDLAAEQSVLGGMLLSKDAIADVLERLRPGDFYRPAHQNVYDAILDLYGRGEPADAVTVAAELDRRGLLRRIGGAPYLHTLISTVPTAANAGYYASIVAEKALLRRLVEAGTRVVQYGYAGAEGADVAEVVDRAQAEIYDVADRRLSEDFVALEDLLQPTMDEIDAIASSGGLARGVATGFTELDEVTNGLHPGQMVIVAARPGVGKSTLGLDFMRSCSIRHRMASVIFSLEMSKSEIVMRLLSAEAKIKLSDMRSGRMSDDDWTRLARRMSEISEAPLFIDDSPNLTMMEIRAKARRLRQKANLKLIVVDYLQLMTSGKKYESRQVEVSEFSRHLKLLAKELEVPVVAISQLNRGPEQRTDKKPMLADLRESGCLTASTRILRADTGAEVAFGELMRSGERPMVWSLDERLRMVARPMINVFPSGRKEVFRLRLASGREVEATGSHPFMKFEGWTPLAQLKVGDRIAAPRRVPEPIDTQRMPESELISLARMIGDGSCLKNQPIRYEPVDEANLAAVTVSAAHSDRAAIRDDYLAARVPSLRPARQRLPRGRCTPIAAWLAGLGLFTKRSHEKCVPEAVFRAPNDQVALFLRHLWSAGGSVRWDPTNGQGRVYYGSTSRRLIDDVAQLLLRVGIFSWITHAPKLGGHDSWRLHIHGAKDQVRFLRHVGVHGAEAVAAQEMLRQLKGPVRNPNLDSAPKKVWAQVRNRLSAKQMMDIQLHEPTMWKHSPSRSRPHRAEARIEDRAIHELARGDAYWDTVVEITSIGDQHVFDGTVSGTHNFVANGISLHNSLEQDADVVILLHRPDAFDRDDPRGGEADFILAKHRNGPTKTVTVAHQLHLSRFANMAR
- protocol summary: DnaB intein splicing inhibitors, dose response, biochemical, cell-free fluorescence (AID 449749)
- Format: functional
Activity calls are given as the source filed them.
Entry note: the call must match one of true (1) = active, false (0) = inactive

Worked examples, 5 compounds total:
{"compound": "CC(=O)OCCNc1cc(SCc2ccco2)c2nonc2c1[N+](=O)[O-]", "assigned category": "true (1)"}
{"compound": "O=C(/C=C/c1ccccc1)c1ccc2c3c(cccc13)CC2", "assigned category": "false (0)"}
{"compound": "CCCCNC1=CC(=O)C(=O)c2ccccc21", "assigned category": "true (1)"}
{"compound": "Cc1cc(=O)n(C2CCS(=O)(=O)C2)[nH]1 (stereo not given)", "assigned category": "true (1)"}
{"compound": "O=[N+]([O-])c1cc(/C=N/Nc2nc3ccccc3[nH]2)c(O)cc1O", "assigned category": "true (1)"}

Task: State the result this test recorded for CC(C)Cn1c(C(C)C)nc([N+](=O)[O-])c1S(=O)(=O)c1ccc(F)cc1 .
Output: true (1)

Task: Next up: CC(C)(C)c1ccc(S(=O)(=O)/N=C2\C=C(NS(=O)(=O)c3ccccc3)C(=O)c3ccccc32)cc1
Output: true (1)

Task: Next up: CCOC(=O)c1c(NC(=O)CCl)sc(CN(C)C)c1-c1ccccc1
Output: true (1)

Task: Next up: CC1=NN(c2ccccc2)C(=O)/C1=C/c1cn(C)c2ccccc12
Output: true (1)

Task: Next up: Cc1ccc(-c2ccc(C3C(C#N)=C(N)Oc4[nH]nc(C)c43)o2)cc1 (stereo not given)
Output: false (0)

Task: Next up: CC1=C(C)/C(=N\OC(=O)/C=C/c2ccccc2)C=CC1=O
Output: false (0)

Task: Next up: O=[N+]([O-])c1cc(C(F)(F)F)cc([N+](=O)[O-])c1NCCNC(=S)Nc1ccc(Cl)c(Cl)c1
Output: true (1)

Task: Next up: COc1ccc2nc3ccccc3nc2c1N
Output: true (1)

Task: Next up: Cc1ccc(N(C(=O)CCl)C(C(=O)NC2CCCCC2)c2cccnc2)cc1C (stereo not given)
Output: true (1)

Task: Next up: CCOc1ccc(Cl)cc1C(c1c(C)n[nH]c1O)c1c(C)n[nH]c1O
Output: true (1)
